IC50 values, listed per item
# Measurement protocol: cells
# Condition notes: Homo sapiens, HL-60, 48 h
# Description: Cytotoxicity against human HL60 cells after 48 hrs by MTT assay
Answer format: numeric, µM implied, no suffix.

Challenge: Which IC50 value belongs to CC(=O)Oc1c(OC(C)=O)c(-c2ccc(O[Si](C)(C)C(C)(C)C)cc2)c2c(c1-c1ccc(O[Si](C)(C)C(C)(C)C)cc1)OCO2 ?
Response given: 2.9

Challenge: Which IC50 value belongs to CC(C)(C)[Si](C)(C)Oc1ccc(C2=C3OCOC3=C(c3ccc(O[Si](C)(C)C(C)(C)C)cc3)C(=O)C2=O)cc1 ?
Response given: 2.8

Challenge: Which IC50 value belongs to COCc1c(COC)c(-c2ccc(O[Si](C)(C)C(C)(C)C)cc2)c(COC)c(COC)c1-c1ccc(O[Si](C)(C)C(C)(C)C)cc1 ?
Response given: 14.4

Challenge: Which IC50 value belongs to COCc1c(OC(C)=O)c(-c2ccc(O[Si](C)(C)C(C)(C)C)cc2)c(COC)c(OC(C)=O)c1-c1ccc(O[Si](C)(C)C(C)(C)C)cc1 ?
Response given: 19.1

Challenge: Which IC50 value belongs to COCC1=C(c2ccc(O[Si](C)(C)C(C)(C)C)cc2)C(=O)C(COC)=C(c2ccc(O[Si](C)(C)C(C)(C)C)cc2)C1=O ?
Response given: 6.5

Challenge: Which IC50 value belongs to CC(=O)Oc1c(OC(C)=O)c(-c2ccc(O[Si](C)(C)C(C)(C)C)cc2)c2c(c1-c1ccc(O[Si](C)(C)C(C)(C)C)cc1)OC(OC(C)=O)O2 ?
Response given: 4.2

====

# Study target: Prolyl endopeptidase (Homo sapiens)
# Sequence (P48147 whole entry): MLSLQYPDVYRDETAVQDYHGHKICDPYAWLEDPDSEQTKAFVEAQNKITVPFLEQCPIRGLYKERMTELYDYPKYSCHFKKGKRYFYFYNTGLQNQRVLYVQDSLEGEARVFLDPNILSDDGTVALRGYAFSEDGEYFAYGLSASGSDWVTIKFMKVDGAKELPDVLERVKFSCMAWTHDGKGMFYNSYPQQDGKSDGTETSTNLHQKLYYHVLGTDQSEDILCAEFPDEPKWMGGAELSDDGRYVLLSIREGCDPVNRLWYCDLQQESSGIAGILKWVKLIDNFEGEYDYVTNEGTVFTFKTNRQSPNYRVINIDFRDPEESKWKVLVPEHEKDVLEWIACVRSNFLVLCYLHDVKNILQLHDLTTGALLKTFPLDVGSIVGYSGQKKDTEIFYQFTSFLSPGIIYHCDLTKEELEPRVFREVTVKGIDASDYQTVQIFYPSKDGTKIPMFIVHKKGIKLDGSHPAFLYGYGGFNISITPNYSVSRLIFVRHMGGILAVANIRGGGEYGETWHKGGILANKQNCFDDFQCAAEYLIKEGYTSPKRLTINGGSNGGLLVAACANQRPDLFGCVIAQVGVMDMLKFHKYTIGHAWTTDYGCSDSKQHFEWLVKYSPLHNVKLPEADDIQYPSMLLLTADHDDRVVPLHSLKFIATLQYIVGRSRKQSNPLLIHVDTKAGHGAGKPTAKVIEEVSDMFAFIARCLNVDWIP
pIC50: −log10 of the molar value.
pIC50 values, listed per item

- Structure string: "COCc1c(OC(C)=O)c(-c2ccc(O[Si](C)(C)C(C)(C)C)cc2)c(COC)c(OC(C)=O)c1-c1ccc(O[Si](C)(C)C(C)(C)C)cc1"
  Study target: "Prolyl endopeptidase (Homo sapiens)"
  Endpoint: "pIC50"
  Observed measurement: "< 4.30"

Challenge: Return pIC50 measured with Prolyl endopeptidase (Homo sapiens) given this molecule: COCc1c(COC)c(-c2ccc(O[Si](C)(C)C(C)(C)C)cc2)c(COC)c(COC)c1-c1ccc(O[Si](C)(C)C(C)(C)C)cc1
Response given: < 4.30
